So I've got a bunch of molecules here, and I need their concentration required for bacterial growth inhibition values.
# Tested on: Pseudomonas aeruginosa ATCC 27853
# protocol_text: Sensitization to erythromycin, novobiocin or rifampicin (permeabilization, FIC)
# Assay type: cell-based
# condition_details: Table 12; with novobiocin (order of b151); Pseudomonas aeruginosa ATCC 27853
Numbers only, in µg/mL.

C[C@]12CC[C@@H](OCCCN)C[C@H]1C[C@@H](OCCCN)[C@@H]1[C@@H]2C[C@H](OCCCN)[C@]2(C)[C@@H](O)CC[C@@H]12 :: 30
C[C@H](CCCO)[C@H]1CC[C@H]2[C@@H]3[C@H](OCCCN)C[C@@H]4C[C@H](OCCCN)CC[C@]4(C)[C@H]3C[C@H](OCCCN)[C@]12C :: 5.3
CCCOCCC[C@@H](C)[C@H]1CC[C@H]2[C@@H]3[C@H](OCCCN)C[C@@H]4C[C@H](OCCCN)CC[C@]4(C)[C@H]3C[C@H](OCCCN)[C@]12C :: 0.72
C[C@H](CCCN(C)Cc1ccccc1)[C@H]1CC[C@H]2[C@@H]3[C@H](OCCCN)C[C@@H]4C[C@H](OCCCN)CC[C@]4(C)[C@H]3C[C@H](OCCCN)[C@]12C :: 2.9

Proceeding to the next molecule to report its concentration required for bacterial growth inhibition.
Lab note: need concentration required for bacterial growth inhibition with Pseudomonas aeruginosa ATCC 27853 for entry C[C@H](CCCN(C)Cc1ccccc1)[C@H]1CC[C@H]2[C@@H]3[C@H](OCCN)C[C@@H]4C[C@H](OCCN)CC[C@]4(C)[C@H]3C[C@H](OCCN)[C@]12C , please look it up.
3.9
